- System: Fibroblast
- Experiment Notes: Multiplex assay against human fibroblast
- Assay type: toxicity, cell-based
- Test Conditions: 24 h, 10 µM, compound concentration 10 uM, replicate 2
Field: Total Cell Count. Provide a value for each of the compounds that follow.
One number for each entry.

Sample records with Total Cell Count:
{"Compound": "O=C(NCC(=O)N1CC[C@H](N[C@H]2CC[C@@](O)(c3ccc(-c4ncccn4)cn3)CC2)C1)c1cccc(C(F)(F)F)c1", "Study System": "Fibroblast", "Measured Attribute": "Total Cell Count", "Reported Measurement": 139}
{"Compound": "Cc1nc2ccc(Oc3ccc(F)cc3)cc2c(=O)n1C[C@H]1CCCN(C(C)C)C1.Cl", "Study System": "Fibroblast", "Measured Attribute": "Total Cell Count", "Reported Measurement": 187}
{"Compound": "COc1cc(NC(=O)CCN2CCC(OC(=O)Nc3ccccc3-c3ccccc3)CC2)c(Cl)cc1CNC[C@H](O)c1ccc(O)c2[nH]c(=O)ccc12", "Study System": "Fibroblast", "Measured Attribute": "Total Cell Count", "Reported Measurement": 136}
{"Compound": "CN(C)c1ccnc2sc3c(=O)n(N4CCCCCC4)cnc3c12", "Study System": "Fibroblast", "Measured Attribute": "Total Cell Count", "Reported Measurement": 128}
{"Compound": "COc1ccc2c(c1)C(C(=O)N(Cc1ccc(N(C)C)cc1)c1ccc(C(C)C)cc1)CCC2.Cl (configuration not stated)", "Study System": "Fibroblast", "Measured Attribute": "Total Cell Count", "Reported Measurement": 148}
{"Compound": "CC(=O)NCCc1c(Cc2ccccc2)[nH]c2ccccc12", "Study System": "Fibroblast", "Measured Attribute": "Total Cell Count", "Reported Measurement": 105}

// for each compound below, give its Total Cell Count
1. CCNC1(C(N)=O)CCN(c2ncnc3c2nc(-c2ccccc2Cl)n3-c2ccc(Cl)cc2)CC1
2. Cc1ccccc1C(=O)Nc1ccc(C(=O)N2CCCC(N(C)C)c3ccccc32)cc1.Cl (configuration not stated)
3. CCCn1c(=O)c2[nH]c(C3CCCC3)nc2n(CCC)c1=O
4. CCOc1c2c(c(OCC)c3ncccc13)CN(c1ccc(CS(=O)(=O)NC(=O)Cc3ccccc3OC)cc1C)C2=O
5. CC(C)(C)c1ccc(S(=O)(=O)Nc2ccc(Cl)cc2C(=O)c2cc[n+]([O-])cc2)cc1
6. Cl.Clc1ccc2nsnc2c1NC1=NCCN1 [TIZANIDINE HYDROCHLORIDE]
7. Cc1ccc(F)cc1C(=O)Nc1ccc(C(=O)N2Cc3cccn3Cc3ccccc32)c(Cl)c1
8. COc1cc(C(=O)N(CCCc2ccccc2)Cc2ccc(CC(=O)O)cc2)cc(OC)c1C

Resp:
[235, 107, 125, 142, 120, 135, 174, 175]

Batch request: Total Cell Count for each of the following compounds.
1. Cc1ccc(/C(=C\CN2CCCC2)c2ccccn2)cc1
2. CN1CCN(c2nc3cc(C(F)(F)F)ccc3n3cccc23)CC1.O=C(O)/C=C\C(=O)O.O=C(O)/C=C\C(=O)O
3. CN(C)CCCc1cc(C(=O)Nc2ccc(-c3ccncc3)cc2)ccc1O.Cl.Cl

Resp:
1. 141
2. 117
3. 242

Ref: ChEMBL document CHEMBL5058577
